Biological target: T1, Recombinant human MASP1 enzyme (fragment corresponding to amino acids 297-699, C-terminal His Tag) (human, UniProt P48740 297-699)
T1 sequence: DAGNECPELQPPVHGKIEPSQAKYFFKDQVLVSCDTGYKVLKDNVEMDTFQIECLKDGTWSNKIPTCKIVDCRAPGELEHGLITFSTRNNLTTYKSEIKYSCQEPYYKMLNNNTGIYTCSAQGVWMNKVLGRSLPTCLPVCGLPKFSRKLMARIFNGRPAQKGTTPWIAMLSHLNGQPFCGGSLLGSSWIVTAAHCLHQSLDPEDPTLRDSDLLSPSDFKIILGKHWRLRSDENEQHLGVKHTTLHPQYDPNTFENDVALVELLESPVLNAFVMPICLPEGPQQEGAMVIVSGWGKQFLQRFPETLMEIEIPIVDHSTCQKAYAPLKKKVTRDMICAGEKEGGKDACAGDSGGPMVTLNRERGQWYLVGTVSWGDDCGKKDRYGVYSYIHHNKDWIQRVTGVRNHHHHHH
Experiment: cell-based or functional assay
Numbered stars: 1 amine (or outer) side, 2 acyl side, 3 side chain; on linkers, the order of the positions; unused ones are H or OH. Bridge positions count the residues as written; N and C are the ends. Square brackets hold non-standard residues; d marks the D form. Ends that are not written are not given here. * marks the point of attachment. (3-Chloro-Ph)G = 3-chlorophenylglycine, O=C([C@@H](N[*:1])c1cccc(Cl)c1)[*:2]; Phe(3-COOH) = N[C@@H](Cc1cccc(C(=O)O)c1)C(=O)O; Piperidin‑4‑ylacetic acid = O=C(CC1CCNCC1)*; Oic = O=C(O)[C@@H]1C[C@@H]2CCCC[C@@H]2N1; tBuAla = CC(C)(C)C[C@H](N)C(=O)O; Pen = CC(C)(S)[C@H](N)C(=O)O; NMeC = CN[C@@H](CS)C(=O)O; Orn = NCCC[C@H](N)C(=O)O; Sar = CNCC(=O)O
measure: human MASP1 IC50 (nM)

INSERT INTO measurements (binder, test_value) VALUES
  ('[Sar]ICSRSLP[Oic]I[Pen]IP[Phe(3-COOH)]-OH (disulfide 3-11; N-terminus assumed; SMILES CC[C@H](C)[C@H](NC(=O)CNC)C(=O)N[C@H]1CSSC(C)(C)[C@@H](C(=O)N[C@H](C(=O)N2CCC[C@H]2C(=O)N[C@@H](Cc2cccc(C(=O)O)c2)C(=O)O)[C@@H](C)CC)NC(=O)[C@H]([C@@H](C)CC)NC(=O)[C@@H]2C[C@@H]3CCCC[C@@H]3N2C(=O)[C@@H]2CCCN2C(=O)[C@H](CC(C)C)NC(=O)[C@H](CO)NC(=O)[C@H](CCCNC(=N)N)NC(=O)[C@H](CO)NC1=O) [((N-Me)G)-IC+SRSLP-(Oic)-I-(Pen)+IP-((3-Carboxy)F)-OH]', 5.4),
  ('[Orn]ICSRS[tBuAla]PPI[NMeC]IPD-OH (disulfide 3-11; N-terminus assumed; SMILES CC[C@H](C)[C@H](NC(=O)[C@@H](N)CCCN)C(=O)N[C@H]1CSSC[C@@H](C(=O)N[C@H](C(=O)N2CCC[C@H]2C(=O)N[C@@H](CC(=O)O)C(=O)O)[C@@H](C)CC)N(C)C(=O)[C@H]([C@@H](C)CC)NC(=O)[C@@H]2CCCN2C(=O)[C@@H]2CCCN2C(=O)[C@H](CC(C)(C)C)NC(=O)[C@H](CO)NC(=O)[C@H](CCCNC(=N)N)NC(=O)[C@H](CO)NC1=O) [(Orn)-IC+SRS-((tBu)A)-PPI-((N-Me)C)+IPD-OH]', 5.85),
  ('{Piperidin‑4‑ylacetic acid}-ICSRS[tBuAla]PPICIPD-OH (disulfide 2-10; SMILES CC[C@H](C)[C@H](NC(=O)CC1CCNCC1)C(=O)N[C@H]1CSSC[C@@H](C(=O)N[C@H](C(=O)N2CCC[C@H]2C(=O)N[C@@H](CC(=O)O)C(=O)O)[C@@H](C)CC)NC(=O)[C@H]([C@@H](C)CC)NC(=O)[C@@H]2CCCN2C(=O)[C@@H]2CCCN2C(=O)[C@H](CC(C)(C)C)NC(=O)[C@H](CO)NC(=O)[C@H](CCCNC(=N)N)NC(=O)[C@H](CO)NC1=O) [(Piperidin-4-ylacetic acid)-IC+SRS-((tBu)A)-PPIC+IPD-OH]', 26),
  ('AICSRSLPP[(3-Chloro-Ph)G]CIPD-OH (disulfide 3-11; N-terminus assumed; SMILES CC[C@H](C)[C@H](NC(=O)[C@H](C)N)C(=O)N[C@H]1CSSC[C@@H](C(=O)N[C@H](C(=O)N2CCC[C@H]2C(=O)N[C@@H](CC(=O)O)C(=O)O)[C@@H](C)CC)NC(=O)[C@H](c2cccc(Cl)c2)NC(=O)[C@@H]2CCCN2C(=O)[C@@H]2CCCN2C(=O)[C@H](CC(C)C)NC(=O)[C@H](CO)NC(=O)[C@H](CCCNC(=N)N)NC(=O)[C@H](CO)NC1=O) [AIC+SRSLPP-((3-Chloro-Ph)G)-C+IPD-OH]', 526);
